# method.description: Protein binding in mouse plasma at 5 uM after 4 hrs by equilibrium dialysis assay
# Assay type: ADME, cell-free
# condition.notes: read-out: PPB (converted)
reported.property: fraction unbound at 4 h, 5 µM

>>> experimental_value("COCCN1CCN(c2ccc(C(=O)Nc3n[nH]c4nc(-c5c(Cl)c(OC)cc(OC)c5Cl)ccc34)cc2)CC1")
0.004
>>> experimental_value("COc1cc(CCc2cc(NC(=O)c3ccc(N4C[C@@H](C)N[C@@H](C)C4)cc3)n[nH]2)cc(OC)c1")
0.007
>>> experimental_value("COc1cc(OC)c(Cl)c(-c2ccc3c(NC(=O)c4ccc(N5CCCN(C)CC5)cc4)n[nH]c3n2)c1Cl")
0.004
>>> experimental_value("COc1cc(OC)c(Cl)c(-c2ccc3c(NC(=O)c4ccc(N5CCN(CCO)CC5)cc4)n[nH]c3n2)c1Cl")
0.005

###

# System: NCI-H1581
# method.description: Antiproliferative activity against human NCI-H1581 cells after 72 hrs by CCK-8 assay
# Assay type: functional, cell-based
# condition.notes: NCI-H1581, 72 h
reported.property: IC50 (nM)

Use these answered entries as a reference point.
>>> experimental_value("COc1cc(CCc2cc(NC(=O)c3ccc(N4C[C@@H](C)N[C@@H](C)C4)cc3)n[nH]2)cc(OC)c1")
37.9
>>> experimental_value("COc1cc(OC)c(Cl)c(-c2ccc3c(NC(=O)c4ccc(N5CCN(C)CC5)nc4)n[nH]c3n2)c1Cl")
1.5
>>> experimental_value("COc1cc(OC)c(Cl)c(-c2ccc3c(NC(=O)c4ccc(N5CCN(C)CC5)c(Cl)c4)n[nH]c3n2)c1Cl")
191
>>> experimental_value("COc1cc(C(=O)Nc2n[nH]c3nc(-c4c(Cl)c(OC)cc(OC)c4Cl)ccc23)ccc1N1CCN(C)CC1")
15.6
>>> experimental_value("COc1cc(OC)c(Cl)c(-c2ccc3c(NC(=O)c4ccc(C5CCN(C)CC5)cc4)n[nH]c3n2)c1Cl")
8.2
>>> experimental_value("CCN1CCN(c2ccc(C(=O)Nc3n[nH]c4nc(-c5c(Cl)c(OC)cc(OC)c5Cl)ccc34)cc2)CC1")
0.7
>>> experimental_value("COc1cc(OC)c(Cl)c(-c2ccc3c(NC(=O)c4ccc(N5CCN(S(C)(=O)=O)CC5)cc4)n[nH]c3n2)c1Cl")
245
>>> experimental_value("COc1cc(OC)c(Cl)c(-c2ccc3c(NC(=O)c4ccc(N)cc4)n[nH]c3n2)c1Cl")
218

1. COc1cc(OC)c(Cl)c(-c2ccc3c(NC(=O)c4ccc(N5CCN(C)CC5)s4)n[nH]c3n2)c1Cl
2. COc1cc(OC)c(Cl)c(-c2ccc3c(NC(=O)c4ccc(N5CCNCC5)cc4)n[nH]c3n2)c1Cl
3. COc1cc(N2CCN(C)CC2)ccc1C(=O)Nc1n[nH]c2nc(-c3c(Cl)c(OC)cc(OC)c3Cl)ccc12
Put the items in order so that reported IC50 rises from first to last. Reply: labels, ordered per the request.
2, 1, 3
(2: 1.4 nM, 1: 3.7 nM, 3: 525 nM)

1. COc1cc(OC)c(Cl)c(-c2ccc3c(NC(=O)c4ccc(N5CCN(C)CC5)cn4)n[nH]c3n2)c1Cl
2. COc1cc(OC)c(Cl)c(-c2ccc3c(NC(=O)c4ccc(N5CCN(C(C)=O)CC5)cc4)n[nH]c3n2)c1Cl
3. COc1cc(OC)c(Cl)c(-c2ccc3c(NC(=O)c4ccc(N5CCCCC5)cc4)n[nH]c3n2)c1Cl
Arrange the 3 compounds from largest to smallest IC50. Could you list the labels in the order requested?
3, 2, 1
(3: 558 nM, 2: 43.3 nM, 1: 4.4 nM)

###

# System: NCI-H1581
# method.description: Antiproliferative activity against human NCI-H1581 cells after 72 hrs by CCK-8 assay
# Assay type: functional, cell-based
# condition.notes: NCI-H1581, 72 h
pIC50: −log10 of the molar value.
reported.property: pIC50

Recorded results for 2 compounds are shown here.
>>> experimental_value("COc1cc(OC)c(Cl)c(-c2ccc3c(NC(=O)c4ccc(N5CCN(C6CCC6)CC5)cc4)n[nH]c3n2)c1Cl")
8.64
>>> experimental_value("COCCN1CCN(c2ccc(C(=O)Nc3n[nH]c4nc(-c5c(Cl)c(OC)cc(OC)c5Cl)ccc34)cc2)CC1")
9.15

1. COc1cc(OC)c(Cl)c(-c2ccc3c(NC(=O)c4cnc(N5CCN(C)CC5)cn4)n[nH]c3n2)c1Cl
2. COc1cc(OC)c(Cl)c(-c2ccc3c(NC(=O)c4ccc(N5CCN(C)CC5)cc4Cl)n[nH]c3n2)c1Cl
3. COc1cc(OC)c(Cl)c(-c2ccc3c(NC(=O)c4ccc(N(C)C)cc4)n[nH]c3n2)c1Cl
4. COc1cc(OC)c(Cl)c(-c2ccc3c(NC(=O)c4ccc(N5CCN(C(C)C)CC5)cc4)n[nH]c3n2)c1Cl
Put the entries in order of pIC50, starting with the largest number. Write the labels out in the order the request specifies.
4, 2, 1, 3
(4: 8.85, 2: 7.56, 1: 7.22, 3: 6.53)

A. C=CCN1CCN(c2ccc(C(=O)Nc3n[nH]c4nc(-c5c(Cl)c(OC)cc(OC)c5Cl)ccc34)cc2)CC1
B. COc1cc(OC)c(Cl)c(-c2ccc3c(NC(=O)c4ccc(N5CCN(C)CC5)cc4)n[nH]c3n2)c1Cl
Endpoint returns whichever of A and B has the numerically higher pIC50. State your choice using its label.
B

###

# assay.system: Fibroblast growth factor receptor 1 (Homo sapiens, UniProt P11362)
# Sequence (P11362 whole entry): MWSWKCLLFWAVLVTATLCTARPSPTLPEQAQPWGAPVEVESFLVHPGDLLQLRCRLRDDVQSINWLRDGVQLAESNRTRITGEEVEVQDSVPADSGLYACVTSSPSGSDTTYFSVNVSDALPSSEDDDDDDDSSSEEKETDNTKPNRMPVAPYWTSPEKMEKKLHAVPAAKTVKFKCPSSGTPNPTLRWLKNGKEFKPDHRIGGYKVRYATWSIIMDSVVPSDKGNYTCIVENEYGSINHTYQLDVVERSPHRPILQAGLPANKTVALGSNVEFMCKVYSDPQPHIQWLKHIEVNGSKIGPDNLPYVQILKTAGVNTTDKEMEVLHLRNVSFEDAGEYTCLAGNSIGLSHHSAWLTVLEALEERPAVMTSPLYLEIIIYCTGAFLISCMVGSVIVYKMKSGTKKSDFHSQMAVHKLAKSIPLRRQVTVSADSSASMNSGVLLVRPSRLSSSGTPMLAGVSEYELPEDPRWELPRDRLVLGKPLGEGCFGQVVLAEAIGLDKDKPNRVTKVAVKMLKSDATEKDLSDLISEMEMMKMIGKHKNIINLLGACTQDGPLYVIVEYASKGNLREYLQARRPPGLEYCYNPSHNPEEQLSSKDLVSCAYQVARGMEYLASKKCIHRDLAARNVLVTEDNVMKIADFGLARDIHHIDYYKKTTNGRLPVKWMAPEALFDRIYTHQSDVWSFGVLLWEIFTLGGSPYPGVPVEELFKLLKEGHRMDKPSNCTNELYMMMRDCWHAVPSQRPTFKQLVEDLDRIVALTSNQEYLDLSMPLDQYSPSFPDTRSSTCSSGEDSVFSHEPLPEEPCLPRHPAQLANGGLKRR
# method.description: Inhibition of recombinant human FGFR1 using poly (Glu,Tyr)4:1 as substrate incubated for 60 mins by ELISA
reported.property: IC50 (nM)

I. COc1cc(OC)c(Cl)c(-c2ccc3c(NC(=O)c4ccc(N5CCN(C(C)C)CC5)cc4)n[nH]c3n2)c1Cl
II. COc1cc(OC)c(Cl)c(-c2ccc3c(NC(=O)c4ccc(N5CCN(C)CC5)cc4)n[nH]c3c2)c1Cl
III. COc1cc(OC)c(Cl)c(-c2ccc3c(NC(=O)c4ccc(N5CCN(C6CCC6)CC5)cc4)n[nH]c3n2)c1Cl
Order the records, beginning with the lowest IC50 and ending with the highest. Provide the labels, sequenced as the question asks.
III, I, II

I. COc1cc(OC)c(Cl)c(-c2ccc3c(NC(=O)c4ccc(N5CCN(C)CC5)nc4)n[nH]c3n2)c1Cl
II. COc1cc(OC)c(Cl)c(-c2ccc3c(NC(=O)c4cnc(N5CCN(C)CC5)cn4)n[nH]c3n2)c1Cl
III. COc1cc(OC)c(Cl)c(-c2ccc3c(NC(=O)c4ccccc4)n[nH]c3n2)c1Cl
Ordering: ascending IC50. Reply with the item labels sorted in the order that was asked for.
I, II, III

I. COc1cc(OC)c(Cl)c(-c2ccc3c(NC(=O)c4ccc(N5CCOCC5)cc4)n[nH]c3n2)c1Cl
II. COc1cc(C(=O)Nc2n[nH]c3nc(-c4c(Cl)c(OC)cc(OC)c4Cl)ccc23)ccc1N1CCN(C)CC1
Min IC50? I | II Bench note: the answer is the label of the chosen record.
I
(I: 7.7 nM, II: 14.2 nM)

###

# method.description: Oral bioavailability in ICR mouse at 12.5 mg/kg administered as gavage by LC-MS/MS analysis
# Assay type: ADME, organism-based
# condition.notes: in vivo
reported.property: bioavailability (%)

Some solved entries appear below for comparison.
>>> experimental_value("COc1cc(OC)c(Cl)c(-c2ccc3c(NC(=O)c4ccc(N5CCN(CCO)CC5)cc4)n[nH]c3n2)c1Cl")
52.3
>>> experimental_value("COCCN1CCN(c2ccc(C(=O)Nc3n[nH]c4nc(-c5c(Cl)c(OC)cc(OC)c5Cl)ccc34)cc2)CC1")
72

P. COc1cc(CCc2cc(NC(=O)c3ccc(N4C[C@@H](C)N[C@@H](C)C4)cc3)n[nH]2)cc(OC)c1 [FEXAGRATINIB]
Q. COc1cc(OC)c(Cl)c(-c2ccc3c(NC(=O)c4ccc(N5CCCN(C)CC5)cc4)n[nH]c3n2)c1Cl
Among P and Q , whose measured bioavailability is the smaller figure? API: response body contains the label of the selected item.
Q

###

# method.description: AUC(0 to infinity) in ICR mouse at 2 mg/kg, iv by LC-MS/MS analysis
# Format: ADME, organism-based
# Set-up: dose 2 mg/kg, time infinity, route intravenous
# condition.notes: in vivo
reported.property: AUC(0-inf) (ng·h/mL)

# annotated cases, reported AUC(0-inf) shown
>>> experimental_value("COc1cc(CCc2cc(NC(=O)c3ccc(N4C[C@@H](C)N[C@@H](C)C4)cc3)n[nH]2)cc(OC)c1 [FEXAGRATINIB]")
2080
>>> experimental_value("COCCN1CCN(c2ccc(C(=O)Nc3n[nH]c4nc(-c5c(Cl)c(OC)cc(OC)c5Cl)ccc34)cc2)CC1")
2000

a. COc1cc(OC)c(Cl)c(-c2ccc3c(NC(=O)c4ccc(N5CCN(CCO)CC5)cc4)n[nH]c3n2)c1Cl
b. COc1cc(OC)c(Cl)c(-c2ccc3c(NC(=O)c4ccc(N5CCCN(C)CC5)cc4)n[nH]c3n2)c1Cl
Which has the smaller recorded AUC(0-inf), a or b ? Indicate which entry you chose by stating its label.
a
(a: 1080 ng·h/mL, b: 1840 ng·h/mL)
